Where do these numbers come from? They come from patent US11130803B2.

# ASSAYED_TARGET: T1, hLRRC33-proTGFβ1 (Homo sapiens, UniProt P01137)
# T1 construct: made in house
# T1 sequence (P01137 30-390): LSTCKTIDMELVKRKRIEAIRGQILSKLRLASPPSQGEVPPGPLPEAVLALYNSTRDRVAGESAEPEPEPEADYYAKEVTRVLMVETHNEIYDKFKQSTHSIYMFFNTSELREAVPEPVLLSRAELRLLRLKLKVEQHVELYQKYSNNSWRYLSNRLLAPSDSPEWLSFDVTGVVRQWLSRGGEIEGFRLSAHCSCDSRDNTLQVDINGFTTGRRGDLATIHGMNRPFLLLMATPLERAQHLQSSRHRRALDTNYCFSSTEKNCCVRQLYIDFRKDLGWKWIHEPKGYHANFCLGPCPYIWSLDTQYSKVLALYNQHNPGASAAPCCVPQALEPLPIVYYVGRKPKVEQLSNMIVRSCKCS
# T1 sequence (Q86YC3 19-650 partner limits assumed): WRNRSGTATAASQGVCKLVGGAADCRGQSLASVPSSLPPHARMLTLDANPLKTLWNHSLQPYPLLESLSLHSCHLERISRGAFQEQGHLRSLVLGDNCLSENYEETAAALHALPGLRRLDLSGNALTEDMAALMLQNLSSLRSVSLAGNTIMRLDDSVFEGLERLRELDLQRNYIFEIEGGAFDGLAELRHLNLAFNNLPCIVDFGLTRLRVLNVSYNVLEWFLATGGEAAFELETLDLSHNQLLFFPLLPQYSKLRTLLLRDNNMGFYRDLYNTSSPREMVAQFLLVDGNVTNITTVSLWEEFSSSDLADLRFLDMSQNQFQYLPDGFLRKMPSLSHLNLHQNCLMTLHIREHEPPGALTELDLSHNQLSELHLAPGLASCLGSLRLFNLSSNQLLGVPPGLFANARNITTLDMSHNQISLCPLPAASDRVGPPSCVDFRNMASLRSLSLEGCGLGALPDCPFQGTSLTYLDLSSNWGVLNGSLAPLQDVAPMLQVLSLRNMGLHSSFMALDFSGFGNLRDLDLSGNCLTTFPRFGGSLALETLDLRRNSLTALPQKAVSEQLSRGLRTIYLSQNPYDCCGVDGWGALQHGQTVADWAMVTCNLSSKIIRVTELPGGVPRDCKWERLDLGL
# PROTOCOL_SUMMARY: MSD-SET solution equilibrium titration binding
# MEASUREMENT_PARAMETERS: MSD-SET at equilibrium, hIgG4, human complex; in M
ATTRIBUTE_MEASURED: (F) hLRRC33, Cell-associated proTGFβ1 KD

Query: What measured (F) hLRRC33, Cell-associated proTGFβ1 KD goes with Ab11: monoclonal antibody; VH SEQ ID NO: 239, VL SEQ ID NO: 241 (antibody, V domains shown) VH: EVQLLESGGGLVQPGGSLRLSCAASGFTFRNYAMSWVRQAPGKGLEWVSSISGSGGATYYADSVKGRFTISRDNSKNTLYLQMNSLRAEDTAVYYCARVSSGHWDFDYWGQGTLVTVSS VL: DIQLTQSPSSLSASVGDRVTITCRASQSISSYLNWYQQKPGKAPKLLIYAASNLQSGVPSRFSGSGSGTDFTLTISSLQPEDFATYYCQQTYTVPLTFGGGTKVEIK ?
Reply: 6.30E−09
